Hi there, I'd appreciate the recorded MIC for every entry that follows.
- Tested on: Salmonella typhi ATCC19430
- method.notes: Antimicrobial MIC, agar dilution
- Type: cell-based
- condition: Salmonella enterica, 18 h, read-out: Minimum inhibitory concentration (MIC)
One number for each entry, in µg/mL.

Please review the following examples before continuing.
- compound: "CC[C@H](C)[C@H](N)C(=O)Oc1ccc(/C=C/C(=O)CC(=O)/C=C/c2ccc(OC(=O)[C@@H](N)[C@@H](C)CC)c(OC)c2)cc1OC.Cl.Cl [HCl-L-Ile-Cur]"
  MIC (µg/mL): 0.125
- compound: "COc1cc(/C=C/C(=O)CC(=O)/C=C/c2ccc(OC(=O)[C@H](CC(C)C)NC(=O)OCc3ccccc3)c(OC)c2)ccc1OC(=O)[C@H](CC(C)C)NC(=O)OCc1ccccc1"
  MIC (µg/mL): 0.25
- compound: "COc1cc(/C=C/C(=O)CC(=O)/C=C/c2ccc(OC(=O)[C@H](CCSC)NC(=O)OCC3c4ccccc4-c4ccccc43)c(OC)c2)ccc1OC(=O)[C@H](CCSC)NC(=O)OCC1c2ccccc2-c2ccccc21"
  MIC (µg/mL): 2
- compound: "COc1cc(/C=C/C(=O)CC(=O)/C=C/c2ccc(OC(=O)C(C)N)c(OC)c2)ccc1OC(=O)C(C)N.Cl.Cl (racemic) [HCl-DL-Ala-Cur]"
  MIC (µg/mL): 0.25
- compound: "COc1cc(/C=C/C(=O)CC(=O)/C=C/c2ccc(OC(=O)[C@@H](NC(=O)OCC3c4ccccc4-c4ccccc43)C(C)C)c(OC)c2)ccc1OC(=O)[C@@H](NC(=O)OCC1c2ccccc2-c2ccccc21)C(C)C"
  MIC (µg/mL): 0.5

For each of the items listed, what is its MIC?
1. COc1cc(/C=C/C(=O)CC(=O)/C=C/c2ccc(OC(=O)[C@H](CCC(N)=O)NC(=O)OC(C)(C)C)c(OC)c2)ccc1OC(=O)[C@H](CCC(N)=O)NC(=O)OC(C)(C)C
2. COc1cc(/C=C/C(=O)CC(=O)/C=C/c2ccc(OC(=O)[C@@H](C)NC(=O)OC(C)(C)C)c(OC)c2)ccc1OC(=O)[C@@H](C)NC(=O)OC(C)(C)C
3. CCn1cc(C(=O)O)c(=O)c2cc(F)c(N3CCNCC3)cc21 [Norfloxacin, reference compound]
4. COc1cc(/C=C/C(=O)CC(=O)/C=C/c2ccc(OC(=O)C(C)NC(=O)OCc3ccccc3)c(OC)c2)ccc1OC(=O)C(C)NC(=O)OCc1ccccc1 (racemic)
5. COc1cc(/C=C/C(=O)CC(=O)/C=C/c2ccc(OC(=O)[C@@H](N)CCSC)c(OC)c2)ccc1OC(=O)[C@@H](N)CCSC.Cl.Cl [HCl-L-Met-Cur]

1: 0.125; 2: 0.25; 3: 2.4; 4: 0.5; 5: 0.125

So what's the measured MIC for this one? COc1cc(/C=C/C(=O)CC(=O)/C=C/c2ccc(OC(=O)CN)c(OC)c2)ccc1OC(=O)CN.Cl.Cl [HCl-Gly-Cur]
0.25

* * *

- System: gastric mucosa
- method.notes: Ulcerogenic liability (ulcer index)
- Type: in vivo, albino mice
- condition: orally, three successive days, 10 mg/kg indomethacin mol equivalent
reported.metric: Average severity of ulcer

Please review the following examples before continuing.
- molecule: "COc1cc(/C=C/C(=O)CC(=O)/C=C/c2ccc(OC(=O)[C@H](CCSC)NC(=O)OCC3c4ccccc4-c4ccccc43)c(OC)c2)ccc1OC(=O)[C@H](CCSC)NC(=O)OCC1c2ccccc2-c2ccccc21"
  Average severity of ulcer: 0
- molecule: "COc1cc(/C=C/C(=O)CC(=O)/C=C/c2ccc(OC(=O)[C@@H](C)NC(=O)OCc3ccccc3)c(OC)c2)ccc1OC(=O)[C@@H](C)NC(=O)OCc1ccccc1"
  Average severity of ulcer: 0
- molecule: "COc1cc(/C=C/C(=O)CC(=O)/C=C/c2ccc(OC(=O)CCN)c(OC)c2)ccc1OC(=O)CCN.Cl.Cl [HCl-β-Ala-Cur]"
  Average severity of ulcer: 0
- molecule: "COc1cc(/C=C/C(=O)CC(=O)/C=C/c2ccc(OC(=O)[C@@H](C)N)c(OC)c2)ccc1OC(=O)[C@@H](C)N.Cl.Cl [HCl-D-Ala-Cur]"
  Average severity of ulcer: 0
- molecule: "COc1cc(/C=C/C(=O)CC(=O)/C=C/c2ccc(OC(=O)C(C)NC(=O)OCc3ccccc3)c(OC)c2)ccc1OC(=O)C(C)NC(=O)OCc1ccccc1 (racemic)"
  Average severity of ulcer: 0.67

For each of the items listed, what is its Average severity of ulcer?
1. COc1cc(/C=C/C(=O)CC(=O)/C=C/c2ccc(OC(=O)CN)c(OC)c2)ccc1OC(=O)CN.Cl.Cl [HCl-Gly-Cur]
2. COc1cc(/C=C/C(=O)CC(=O)/C=C/c2ccc(OC(=O)[C@H](CCSC)NC(=O)OC(C)(C)C)c(OC)c2)ccc1OC(=O)[C@H](CCSC)NC(=O)OC(C)(C)C
3. COc1cc(/C=C/C(=O)CC(=O)/C=C/c2ccc(OC(=O)[C@@H](CCSC)NC(=O)OCc3ccccc3)c(OC)c2)ccc1OC(=O)[C@@H](CCSC)NC(=O)OCc1ccccc1
4. COc1cc(/C=C/C(=O)CC(=O)/C=C/c2ccc(OC(=O)[C@H](CCSC)NC(=O)OCc3ccccc3)c(OC)c2)ccc1OC(=O)[C@H](CCSC)NC(=O)OCc1ccccc1
5. COc1ccc2c(c1)c(CC(=O)O)c(C)n2C(=O)c1ccc(Cl)cc1 [Indomethacin, reference compound]
6. COc1cc(/C=C/C(=O)CC(=O)/C=C/c2ccc(OC(=O)[C@@H](CCSC)NC(=O)OC(C)(C)C)c(OC)c2)ccc1OC(=O)[C@@H](CCSC)NC(=O)OC(C)(C)C

1. 0
2. 0
3. 0
4. 0.33
5. 1.67
6. 0

* * *

- Tested on: carrageenan induced paw edema
- method.notes: Anti-inflammatory activity: acute carrageenan induced paw edema in rats
- Type: in vivo, Wister rats
- condition: 1 h; 10 mg kg^−1 indomethacin mol equivalent, intraperitoneally
- Procedure: The anti-inflammatory activity of the tested compounds was determined in vivo by the acute carrageenan induced paw edema standard method in rats. See, Naumov, et al., Bioorg. Med. Chem. Lett, 25: 2314-2320 (2015), Tiwari, et al., Org. Biomol. […] Adult Wister rats of either sex (pregnant female animals were excluded) weighing 120-150 g were divided into 18 groups of 6 animals each. […] Data were collected, checked, revised and analyzed. […]
reported.metric: % inhibition of edema
Include the unit after the number when you answer.

Please review the following examples before continuing.
- molecule: "COc1cc(/C=C/C(=O)CC(=O)/C=C/c2ccc(OC(=O)[C@H](Cc3c[nH]c4ccccc34)NC(=O)OCc3ccccc3)c(OC)c2)ccc1OC(=O)[C@H](Cc1c[nH]c2ccccc12)NC(=O)OCc1ccccc1 [Compound 12]"
  tested.on: "carrageenan induced paw edema"
  % inhibition of edema: "37%"
- molecule: "COc1cc(/C=C/C(=O)CC(=O)/C=C/c2ccc(OC(=O)[C@H](Cc3ccccc3)NC(=O)OCc3ccccc3)c(OC)c2)ccc1OC(=O)[C@H](Cc1ccccc1)NC(=O)OCc1ccccc1 [Compound 11]"
  tested.on: "carrageenan induced paw edema"
  % inhibition of edema: "59%"
- molecule: "COc1cc(/C=C/C(=O)CC(=O)/C=C/c2ccc(OC(=O)CCNC(=O)OC(C)(C)C)c(OC)c2)ccc1OC(=O)CCNC(=O)OC(C)(C)C [Compound 27]"
  tested.on: "carrageenan induced paw edema"
  % inhibition of edema: "31%"
- molecule: "COc1cc(/C=C/C(=O)CC(=O)/C=C/c2ccc(OC(=O)[C@@H](C)NC(=O)OC(C)(C)C)c(OC)c2)ccc1OC(=O)[C@@H](C)NC(=O)OC(C)(C)C [Compound 26]"
  tested.on: "carrageenan induced paw edema"
  % inhibition of edema: "22%"

For each of the items listed, what is its % inhibition of edema?
1. CC[C@H](C)[C@H](NC(=O)OC(C)(C)C)C(=O)Oc1ccc(/C=C/C(=O)CC(=O)/C=C/c2ccc(OC(=O)[C@@H](NC(=O)OC(C)(C)C)[C@@H](C)CC)c(OC)c2)cc1OC [Compound 31]
2. COc1cc(/C=C/C(=O)CC(=O)/C=C/c2ccc(OC(=O)CNC(=O)OCc3ccccc3)c(OC)c2)ccc1OC(=O)CNC(=O)OCc1ccccc1 [Compound 5]

1. 33%
2. 64%

For each of the items listed, what is its % inhibition of edema?
1. COc1cc(/C=C/C(=O)CC(=O)/C=C/c2ccc(OC(=O)C(C)N)c(OC)c2)ccc1OC(=O)C(C)N.Cl.Cl (centres unmarked) [Compound 36]
2. COc1cc(/C=C/C(=O)CC(=O)/C=C/c2ccc(OC(=O)CNC(=O)OCC3c4ccccc4-c4ccccc43)c(OC)c2)ccc1OC(=O)CNC(=O)OCC1c2ccccc2-c2ccccc21 [Compound 13]
3. COc1cc(/C=C/C(=O)CC(=O)/C=C/c2ccc(OC(=O)[C@H](C)N)c(OC)c2)ccc1OC(=O)[C@H](C)N.Cl.Cl [Compound 35]
4. COc1cc(/C=C/C(=O)CC(=O)/C=C/c2ccc(OC(=O)[C@@H](NC(=O)OCC3c4ccccc4-c4ccccc43)C(C)C)c(OC)c2)ccc1OC(=O)[C@@H](NC(=O)OCC1c2ccccc2-c2ccccc21)C(C)C [Compound 15]

54%
40%
37%
22%

Tell me reported % inhibition of edema for COc1cc(/C=C/C(=O)CC(=O)/C=C/c2ccc(OC(=O)[C@@H](NC(=O)OC(C)(C)C)C(C)C)c(OC)c2)ccc1OC(=O)[C@@H](NC(=O)OC(C)(C)C)C(C)C [Compound 30] , tested with carrageenan induced paw edema.
13%
